test system: CD69+B220+ cells; assay: B cell activation assay (IgD-stimulated splenocytes, CD69+B220+ cells by FACS); assay type: cell-based; details: Splenocyte; mouse splenocytes, IgD 3 μg/mL, 4 h
EXPERIMENTAL_ENDPOINT: IC50 (nM)
Give the value, in units of nM, as a plain number.

- COMPOUND: "NC(=O)c1ccc(-c2nn(C3Cc4ccccc4C3)c3ncnc(N)c23)cc1O [compound 111]"
  EXPERIMENTAL_ENDPOINT: "IC50"
  QUANTITATIVE_RESULT: 118
- COMPOUND: "Nc1ncnc2c1c(-c1cc(O)cc(F)c1)nn2C1Cc2ccc(F)cc2C1 (stereo not shown) [compound 57]"
  EXPERIMENTAL_ENDPOINT: "IC50"
  QUANTITATIVE_RESULT: 117
- COMPOUND: "N#Cc1cc(-c2nn(C3CCc4ccccc4C3)c3ncnc(N)c23)cc(O)c1F (stereo not shown) [compound 130]"
  EXPERIMENTAL_ENDPOINT: "IC50"
  QUANTITATIVE_RESULT: 104

Turning now to a further compound:
-- ask Please indicate IC50 recorded for Nc1ncnc2c1c(-c1cc(O)c(F)c(C(F)(F)F)c1)nn2C1Cc2ccccc2C1 [Compound No. 102]
-- reply 191
